test.readout: logP
Write no unit; give the number alone.

q: Dear colleague, please send me the reported logP for "OC(c1ccccc1)(c1ccccc1)c1ccccc1" when you can.
a: 3.68

q: Dear colleague, please send me the reported logP for "CCCCC(=O)N(C)c1ccc(S(=O)(=O)N(C)C)cc1" when you can.
a: 1.63

q: Dear colleague, please send me the reported logP for "COC(=O)c1cccc(NC(C)=O)c1" when you can.
a: 1.46

q: Dear colleague, please send me the reported logP for COc1cccc(CC(C)N)c1OC (stereo not drawn) when you can.
a: 1.49

q: Dear colleague, please send me the reported logP for "CCCc1ccc(NC(C)=O)cc1" when you can.
a: 2.75

q: Dear colleague, please send me the reported logP for "CCOCCOC(=O)C(C#N)=C(CC)Nc1ccc([N+](=O)[O-])cc1" when you can.
a: 2.6

q: Dear colleague, please send me the reported logP for CC(=O)OC1COC(NC(=O)N(CCl)N=O)C(OC(C)=O)C1OC(C)=O (stereo not drawn) when you can.
a: 1.13

q: Dear colleague, please send me the reported logP for "CC(=O)N(CC(=O)Nc1ccccc1)c1ccccc1" when you can.
a: 2.01

q: Dear colleague, please send me the reported logP for "c1ccc(CSc2cnn[nH]2)cc1" when you can.
a: 2.65

q: Dear colleague, please send me the reported logP for "Nc1nnc(N)[nH]1" when you can.
a: -1.61

----------
Recorded logP, one value per entry.
Write no unit; give the number alone.

>>> result_value("CC(=O)Nc1ccc(C(C)=O)cc1")
1.24
>>> result_value("CC(=O)Nc1cccc(C#N)c1")
1.2
>>> result_value("CN/C(=N\\C#N)NCCSCc1csc(N=C(N)N)n1")
0.68
>>> result_value("CCOC(=O)CC(=O)C=Cc1cccc(C)c1")
2.8
>>> result_value("O=NN(CCCl)C(=O)NC1CCC(NC(=O)N(CCCl)N=O)CC1 (stereo not drawn)")
2.74

q: Dear colleague, please send me the reported logP for "O=C(Nc1ccccc1)c1ccc(C(=O)Nc2ccccc2)cc1" when you can.
a: 3.72

q: Dear colleague, please send me the reported logP for "Cn1nnnc1SCc1ccccc1" when you can.
a: 1.63

q: Dear colleague, please send me the reported logP for "c1ccc(Cc2nn[nH]n2)cc1" when you can.
a: 1.36

q: Dear colleague, please send me the reported logP for CCCCCCC1OC(=O)c2cc(N)ccc21 (stereo not drawn) when you can.
a: 3.65

q: Dear colleague, please send me the reported logP for "CC(C)C(=O)Nc1ccc(Cl)c(Cl)c1" when you can.
a: 3.72

----------
Rule: logP below 2 gives yes (1), anything at or above gives no (0).

q: Is the reported logP for CCCCCCCCCCCCCCCC(=O)OCC1OC(n2ccc(N)nc2=O)C(O)C1O (configuration not stated) strictly below 2?
a: no (0)

----------
test.readout: logP
Write no unit; give the number alone.

>>> result_value("CC(=O)OC1CCCC(NC(=O)N(CCF)N=O)C1 (configuration not stated)")
1.33
>>> result_value("CCOC(=O)CON=Cc1ccc(OCCOC(=O)c2ccccc2OC)c(OC)c1")
3.27
>>> result_value("CCCC1CC(C(=O)NC(C(C)Cl)C2OC(SC)C(O)C(O)C2O)N(CC)C1 (configuration not stated)")
2.51
>>> result_value("CC(C)(C)C(=O)Nc1ccc(Cl)c(Cl)c1")
3.88
>>> result_value("CCOCCOC(=O)C(C#N)=C(CC)NCc1ccc([N+](=O)[O-])cc1")
2.64

q: Dear colleague, please send me the reported logP for O=C(NC(CO)C(O)c1ccc(NC(=O)C2CC2)cc1)C(Cl)Cl (configuration not stated) when you can.
a: 0.75

q: Dear colleague, please send me the reported logP for "O=NN(CCCl)C(=O)Nc1ccc(Cl)cc1" when you can.
a: 3.16

q: Dear colleague, please send me the reported logP for "CSC(=O)Nc1ccc(Cl)c(Cl)c1" when you can.
a: 4.23

q: Dear colleague, please send me the reported logP for "Cc1nccnn1" when you can.
a: -1.31

q: Dear colleague, please send me the reported logP for "O=C([O-])c1cc2ccccc2cc1O.[Na+]" when you can.
a: 0.17

q: Dear colleague, please send me the reported logP for "CCCCCCCCCCCCN.Cl" when you can.
a: 1.85

q: Dear colleague, please send me the reported logP for "O=C(Nc1ccc(Cl)c(Cl)c1)C1CCCC1" when you can.
a: 4.47

q: Dear colleague, please send me the reported logP for "CN(C)N=CCCc1ccccc1" when you can.
a: 2.05

q: Dear colleague, please send me the reported logP for "CC1(C)OCCO1" when you can.
a: 0.46

----------
Peptide text beside a SMILES is read from it. * marks the point of attachment. Cbz = O=C(OCc1ccccc1)*
Outcome: satisfied for logP of at least 2; not satisfied for anything lower.

Below, 10 molecules whose answers are already recorded.
>>> label_class("Cc1c(N(C)C)c(=O)[nH]c(=O)n1-c1ccccc1")
"not satisfied"
>>> label_class("COc1cccc(Cc2cnc(N)nc2N)c1OC")
"not satisfied"
>>> label_class("CSc1cccc(NC(C)=O)c1")
"satisfied"
>>> label_class("CC(=O)Nc1ccccc1C(C)C")
"not satisfied"
>>> label_class("CC(C)C(NC(=O)OCc1ccccc1)C(=O)NC(Cc1ccc(O)cc1)C(=O)O (stereo not drawn) (Cbz-Val-Tyr-OH; configuration not given here)")
"satisfied"
>>> label_class("CC(=O)OC[C@@H](OC(C)=O)[C@@H](OC(C)=O)[C@H](OC(C)=O)[C@H](C=O)OC(C)=O")
"not satisfied"
>>> label_class("CCOC(=O)CNCCCCCSc1c2[nH]cnc2nc[n+]1[O-]")
"not satisfied"
>>> label_class("CC(C)OC(=O)c1ccccc1")
"satisfied"
>>> label_class("COc1cccc(OC)n1")
"satisfied"
>>> label_class("CN(C)CCC1CN(C)C(=S)c2cccnc2O1 (stereo unspecified)")
"not satisfied"

Moving on to the next molecule.
q: In plain terms: is recorded logP at least 2 for "COc1ccc(Cc2cnc(N)nc2N)c(OC)c1OC" ?
a: not satisfied

----------
Using logP as the sorting value, the categories are bin 0: < 0.2; bin 1: ≥ 0.2 and < 2; bin 2: ≥ 2

Below, 2 compounds whose answers are already recorded.
>>> label_class("O=S(=O)(NO)c1ccccc1")
"bin 1"
>>> label_class("CCC1(c2ccccc2)NC(=O)NC1=O (stereo not drawn)")
"bin 1"

q: Band assignment needed for O=CC(CO)OC(C=O)n1cnc2c(O)ncnc21 (stereo not drawn) please.
a: bin 0

q: Band assignment needed for "O=C(Nc1ccc(Cl)c(Cl)c1)C(F)F" please.
a: bin 2

q: Band assignment needed for "CC(C)=NO" please.
a: bin 0

q: Band assignment needed for "O=c1cn[nH]c(=O)[nH]1" please.
a: bin 0

q: Band assignment needed for "COc1cc(C(=O)C=CN2CC=CC2)cc(OC)c1OC" please.
a: bin 1

q: Band assignment needed for "Cc1c(NCC(C)C)c(=O)n(-c2ccccc2)c(=O)n1C" please.
a: bin 1

q: Band assignment needed for "CNC(=S)NC12CC3CC(CC(C3)C1)C2" please.
a: bin 2

q: Band assignment needed for COc1cc(C)c2c(c1OC)-c1ccc(SC)c(=O)cc1C(NC1OCC(O)C(O)C1O)CC2 (stereo not drawn) please.
a: bin 1

q: Band assignment needed for "Cc1c(N2CCCC2)c(=O)n(-c2ccccc2)c(=O)n1C" please.
a: bin 2

q: Band assignment needed for "COc1ncccn1" please.
a: bin 1

q: Band assignment needed for CN(C)N=Nc1cn(C2OC(CO)C(O)C2O)c(=O)[nH]c1=O (stereo not drawn) please.
a: bin 0

q: Band assignment needed for "CCOCCOC(=O)C(C#N)=C(NCc1ccc(Cl)cc1)C(C)C" please.
a: bin 2

q: Band assignment needed for "COc1ccc2c(=O)c(C)c(C(C)C)oc2c1" please.
a: bin 2

q: Band assignment needed for "O=S1(=O)NC(C2=CCCC2)=Nc2ccccc21" please.
a: bin 1

q: Band assignment needed for "NCC(=O)NCC(=O)NCC(=O)NCC(=O)NCC(=O)O" please.
a: bin 0

q: Band assignment needed for "COc1ccc(-c2nc3ccncc3[nH]2)c(OC)c1" please.
a: bin 2

q: Band assignment needed for CC(=O)OCC1OC(NC(=O)N(CCCl)N=O)C(OC(C)=O)C(OC(C)=O)C1OC(C)=O (stereo not drawn) please.
a: bin 1

q: Band assignment needed for "CC1(C)N=C(N)N=C(N)N1c1cccc([N+](=O)[O-])c1" please.
a: bin 0

q: Band assignment needed for "c1ccn2nnnc2c1" please.
a: bin 0

q: Band assignment needed for "CC(=O)Nc1ccc(S(C)(=O)=O)cc1" please.
a: bin 1

q: Band assignment needed for "COc1nnccc1N(C)C" please.
a: bin 1

----------
test.readout: logP
Write no unit; give the number alone.

Worked examples follow.
>>> result_value("O=[N+]([O-])c1ccc(C(F)(F)F)cc1")
2.55
>>> result_value("CNC(=O)Oc1cccc(Cl)c1Cl")
2.48

q: Dear colleague, please send me the reported logP for "NC1=NS(=O)(=O)c2ccc(Cl)cc2N1" when you can.
a: 0.91

q: Dear colleague, please send me the reported logP for CCCCOc1ccnc(C=CC2=CC([N+](=O)[O-])O2)n1 (configuration not stated) when you can.
a: 2.04

q: Dear colleague, please send me the reported logP for "CCOC(=O)c1ccc(NC(=O)C(F)(F)F)cc1" when you can.
a: 2.25

q: Dear colleague, please send me the reported logP for "Nc1ccc(S(=O)(=O)[O-])c2ccccc12.[Na+]" when you can.
a: -2.34

q: Dear colleague, please send me the reported logP for COC1OC(COC(C)=O)C(OC(C)=O)C(NC(=O)N(CCCl)N=O)C1OC(C)=O (configuration not stated) when you can.
a: 0.67

q: Dear colleague, please send me the reported logP for "O=C(Nc1ccc(Cl)c(Cl)c1)c1ccccc1" when you can.
a: 4.42
